MEASURED_ON: T1, MBP-fused PDZ domain 1 of NHERF3 (human, UniProt Q5T2W1 9-90)
T1 sequence (looked up): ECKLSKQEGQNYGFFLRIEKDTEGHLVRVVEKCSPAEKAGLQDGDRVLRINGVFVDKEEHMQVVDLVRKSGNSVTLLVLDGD
TEST_DETAILS: fluorescence polarisation
Where no end group is shown, it is not given here.
READOUT_NAME: Kd

INSERT INTO assay_data (binder, readout_value) VALUES
  ('KLPSTTL (peptide, UniProt Q15418 729-735, looked up, also: fluorescein labeled, site not given here) [fluorescein labeled RSK1 729-735 peptide, unphosphorylated]', '80 µM'),
  ('KLPSTTL (peptide, UniProt Q15418 729-735, looked up, phosphorylated; fluorescein labeled) [fluorescein labeled RSK1 729-735 peptide, phosphorylated]', '220 µM');
